system: DFTD cell line T2 (05/2569); test: cell viability, percent of DMSO control (CellTiter-Glo); higher = more viable cells; details: 1.5 µM; 72 h
measure.name: cell viability (%)
Give the number; % is assumed, so skip it.

[
  {
    "compound": "CC1(C)CC(=O)C2=C(C1)NC(=S)NC2c1cccc(O)c1 (configuration not stated) [Dimethylenastron]",
    "measure.name": "cell viability",
    "readout.value": 79.2
  }
]

Ask | Param item = COc1cccc2c1C(=O)c1c(O)c3c(c(O)c1C2=O)C[C@@](O)(C(=O)CO)C[C@@H]3O[C@H]1C[C@H](N)[C@H](O)[C@H](C)O1 [Doxorubicin] ; retrieve measured cell viability.
Reply | 13.4

Ask | cell viability for C=CC(=O)N1CCC(Oc2cc3c(Nc4ccc(Cl)c(Cl)c4F)ncnc3cc2OC)CC1 [Poziotinib (HM781-36B)] ?
Reply | 26.8

Ask | Item under review: CC#CC(=O)Nc1ccc2ncnc(Nc3cccc(Br)c3)c2c1 . Reported cell viability?
Reply | 44.6

Ask | What value of cell viability has been recorded for this entry: CN(C)C/C=C/C(=O)Nc1cc2c(Nc3ccc(F)c(Cl)c3)ncnc2cc1O[C@H]1CCOC1 [Afatinib (BIBW2992)]
Reply | 33.4

Ask | Name the reported cell viability value associated with the compound COc1cc2ncnc(Nc3ccc(F)c(Cl)c3)c2cc1NC(=O)/C=C/CN1CCCCC1
Reply | 51

Ask | // cell viability lookup, key: CCS(=O)(=O)c1cccc(-c2cc(C(=O)NC3CCN(C)CC3)c(C)c3[nH]c4ncc(C)cc4c23)c1 [TAK901]
Reply | 42.4

----------
system: DFTD cell line T2 (05/2569); assay: cell viability, percent of DMSO control (CellTiter-Glo); higher = more viable cells; conditions: 1.5 µM; 72 h
Note to self: cell viability under 40% means Criterion met, ties and anything higher get Criterion not met.

Ask | A record lists CCOc1cc2ncc(C#N)c(Nc3ccc(OCc4ccccn4)c(Cl)c3)c2cc1NC(=O)/C=C/CN(C)C . Is its cell viability below 40%?
Reply | Criterion not met

Ask | Please state whether cell viability is below 40% for COc1cc2ncnc(Nc3ccc(O)c(Br)c3)c2cc1OC
Reply | Criterion not met

----------
Reported values of cell viability for individual entries
tested on: DFTD cell line T3 (06/0368); assay: cell viability, percent of DMSO control (CellTiter-Glo); higher = more viable cells; settings: 0.5 µM; 72 h
Reply with a number, then the unit it belongs to.

Solved entries (count: 2):
[
  {
    "molecule": "CCOc1cc2ncc(C#N)c(Nc3ccc(OCc4ccccn4)c(Cl)c3)c2cc1NC(=O)/C=C/CN(C)C",
    "target.of.assay": "DFTD cell line T3 (06/0368)",
    "cell viability": "92.2%"
  },
  {
    "molecule": "COc1cc2ncnc(Nc3cccc(Br)c3)c2cc1OC.Cl",
    "target.of.assay": "DFTD cell line T3 (06/0368)",
    "cell viability": "89.1%"
  }
]

Now take the following molecule into account.
Ask | Would you mind telling me what cell viability value was observed for C#Cc1cccc(Nc2ncnc3cc(OCCOC)c(OCCOC)cc23)c1.Cl [Erlotinib hydrochloride] ?
Reply | 87.4%

----------
test system: DFTD cell line T4 (07/0192); assay: cell viability, percent of DMSO control (CellTiter-Glo); higher = more viable cells; settings: 13.5 µM; 72 h
measure.name: cell viability (%)
Give just the number in %; leave the unit off.

Please review the entries below; each comes with its answer.
[
  {
    "compound": "COc1cccc2c1C(=O)c1c(O)c3c(c(O)c1C2=O)C[C@@](O)(C(=O)CO)C[C@@H]3O[C@H]1C[C@H](N)[C@@H](O)[C@H](C)O1.Cl",
    "unit.of.measure": "%",
    "cell viability": -4.94
  },
  {
    "compound": "C=CC(=O)N1CCC(Oc2cc3c(Nc4ccc(Cl)c(Cl)c4F)ncnc3cc2OC)CC1 [Poziotinib (HM781-36B)]",
    "unit.of.measure": "%",
    "cell viability": 21.4
  },
  {
    "compound": "C=CC(=O)Nc1cc(Nc2ncc(Cl)c(-c3c[nH]c4ccccc34)n2)c(OC)cc1N(C)CCN(C)C",
    "unit.of.measure": "%",
    "cell viability": 19.9
  },
  {
    "compound": "Cn1nc(-c2ccccn2)nc2c(=O)n(C)c(=O)nc1-2",
    "unit.of.measure": "%",
    "cell viability": 0.999
  },
  {
    "compound": "CC(C)(C)P(=NC(=S)NCCCO)(N1CCCCCC1)N1CCCCCC1",
    "unit.of.measure": "%",
    "cell viability": 30.9
  },
  {
    "compound": "COCCn1c2c([n+](Cc3cnccn3)c1C)C(=O)c1ccccc1C2=O.[Br-]",
    "unit.of.measure": "%",
    "cell viability": -4.07
  }
]

Please examine the following record next.
Ask | State its cell viability on DFTD cell line T4 (07/0192): CC#CC(=O)Nc1ccc2ncnc(Nc3cccc(Br)c3)c2c1
Reply | 4.04

----------
Listing of recorded cell viability by entry.
test system: DFTD cell line T2 (05/2569); assay: cell viability, percent of DMSO control (CellTiter-Glo); higher = more viable cells; conditions: 0.0185 µM; 72 h
Respond numerically; units are % and should not be typed.

[
  {
    "compound": "COc1cc2ncnc(Nc3cccc(Cl)c3F)c2cc1OC(=O)N1CCN(C)C[C@H]1C",
    "cell viability, %": 107
  },
  {
    "compound": "C=CC(=O)Nc1cc(Nc2ncc(Cl)c(-c3c[nH]c4ccccc34)n2)c(OC)cc1N(C)CCN(C)C",
    "cell viability, %": 93.9
  },
  {
    "compound": "CCS(=O)(=O)c1cccc(-c2cc(C(=O)NC3CCN(C)CC3)c(C)c3[nH]c4ncc(C)cc4c23)c1",
    "cell viability, %": 103
  },
  {
    "compound": "C=CC(=O)Nc1cccc(Nc2nc(Nc3ccc(N4CCN(C(C)=O)CC4)cc3OC)ncc2C(F)(F)F)c1",
    "cell viability, %": 108
  },
  {
    "compound": "C#Cc1cccc(Nc2ncnc3cc(OCCOC)c(OCCOC)cc23)c1.Cl [Erlotinib hydrochloride]",
    "cell viability, %": 142
  },
  {
    "compound": "Cn1nc(-c2ccccn2)nc2c(=O)n(C)c(=O)nc1-2",
    "cell viability, %": 102
  }
]

Ask | Entry COc1cccc2c1C(=O)c1c(O)c3c(c(O)c1C2=O)C[C@@](O)(C(=O)CO)C[C@@H]3O[C@H]1C[C@H](N)[C@H](O)[C@H](C)O1.Cl : reported cell viability = ?
Reply | 107

Ask | For the compound Cc1cc(Nc2ncnc3ccc(NC4=NC(C)(C)CO4)cc23)ccc1Oc1ccn2ncnc2c1 , what cell viability is on record?
Reply | 90.6

Ask | Which cell viability is listed for CC(C)(C)P(=NC(=S)NCCCO)(N1CCCCCC1)N1CCCCCC1 ?
Reply | 87.6

Ask | Suppose we examine the compound CC1(C)CC(=O)C2=C(C1)NC(=S)NC2c1cccc(O)c1 (stereo not given) ; what cell viability value has been reported?
Reply | 130

Ask | Fill in the blank: the reported cell viability of CCOc1cc2ncc(C#N)c(Nc3ccc(OCc4ccccn4)c(Cl)c3)c2cc1NC(=O)/C=C/CN(C)C is ____.
Reply | 98

Ask | // query cell viability value for entry CS(=O)(=O)CCNCc1ccc(-c2ccc3ncnc(Nc4ccc(OCc5cccc(F)c5)c(Cl)c4)c3c2)o1.Cc1ccc(S(=O)(=O)O)cc1.Cc1ccc(S(=O)(=O)O)cc1.O [Lapatinib ditosylate monohydrate]
Reply | 88.5

Ask | Fill in: cell viability of COc1cc2ncnc(Nc3cccc(Br)c3)c2cc1OC.Cl is ___
Reply | 106

Ask | Data request, read-out cell viability, for Cn1cnc2c(F)c(Nc3ccc(Br)cc3Cl)c(C(=O)NOCCO)cc21.O=S(=O)(O)O
Reply | 102

Ask | Value lookup for cell viability; key = COc1cc2ncnc(Nc3ccc(O)c(Br)c3)c2cc1OC
Reply | 116

Ask | Please report the recorded cell viability for CCN1CCN(Cc2ccc(-c3cc4c(N[C@H](C)c5ccccc5)ncnc4[nH]3)cc2)CC1 .
Reply | 96

----------
tested on: DFTD cell line T2 (05/2569); test: cell viability, percent of DMSO control (CellTiter-Glo); higher = more viable cells; details: 1.5 µM; 72 h
Criterion: cell viability strictly under 40%. Met: 1 (yes). Not met: 0 (no).

Please review the following examples before continuing.
[
  {
    "compound": "C=CC(=O)Nc1cccc(Nc2nc(Nc3ccc(N4CCN(C(C)=O)CC4)cc3OC)ncc2C(F)(F)F)c1 [Rociletinib (CO-1686, AVL-301)]",
    "target.of.assay": "DFTD cell line T2 (05/2569)",
    "class.name": "0 (no)"
  },
  {
    "compound": "C=CC(=O)Nc1cc2c(Nc3ccc(F)c(Cl)c3)ncnc2cc1OCCCN1CCOCC1 [Canertinib (CI-1033)]",
    "target.of.assay": "DFTD cell line T2 (05/2569)",
    "class.name": "1 (yes)"
  },
  {
    "compound": "CC(C)(C)P(=NC(=S)NCCCO)(N1CCCCCC1)N1CCCCCC1 [T0503-0280]",
    "target.of.assay": "DFTD cell line T2 (05/2569)",
    "class.name": "0 (no)"
  },
  {
    "compound": "CS(=O)(=O)CCNCc1ccc(-c2ccc3ncnc(Nc4ccc(OCc5cccc(F)c5)c(Cl)c4)c3c2)o1.Cc1ccc(S(=O)(=O)O)cc1.Cc1ccc(S(=O)(=O)O)cc1.O [Lapatinib ditosylate monohydrate]",
    "target.of.assay": "DFTD cell line T2 (05/2569)",
    "class.name": "0 (no)"
  },
  {
    "compound": "COc1cccc2c1C(=O)c1c(O)c3c(c(O)c1C2=O)C[C@@](O)(C(=O)CO)C[C@@H]3O[C@H]1C[C@H](N)[C@H](O)[C@H](C)O1.Cl",
    "target.of.assay": "DFTD cell line T2 (05/2569)",
    "class.name": "1 (yes)"
  },
  {
    "compound": "CCN1CCN(Cc2ccc(-c3cc4c(N[C@H](C)c5ccccc5)ncnc4[nH]3)cc2)CC1 [AEE788]",
    "target.of.assay": "DFTD cell line T2 (05/2569)",
    "class.name": "1 (yes)"
  }
]

Ask | Hi there! Is cell viability for CS(=O)(=O)CCNCc1ccc(-c2ccc3ncnc(Nc4ccc(OCc5cccc(F)c5)c(Cl)c4)c3c2)o1.Cc1ccc(S(=O)(=O)O)cc1 below 40%, do you know?
Reply | 0 (no)

Ask | Regarding COc1cccc2c1C(=O)c1c(O)c3c(c(O)c1C2=O)C[C@@](O)(C(=O)CO)C[C@@H]3O[C@H]1C[C@H](N)[C@@H](O)[C@H](C)O1.Cl , kindly confirm whether its cell viability is beneath 40%.
Reply | 1 (yes)
